- target entity: Casein kinase I isoform gamma-1 (Homo sapiens)
- study conditions: at 1 µM
- Description: Millipore: Percentage of residual kinase activity of CSNK1G1 at 1uM relative to control. Control inhibitor: Phosphoric acid* at 0.3uM. Buffer: 8 mM MOPS pH 7.0, 0.2 mM EDTA
property: residual activity
Form field: result (number plus unit)

Reference set, count: 2
CO[C@H]1[C@@H](OC)C[C@H](C)[C@@H](OC)C2=CC(=O)C=C(NC(=O)/C(C)=C/C=C/[C@H](OC)[C@@H](OC(N)=O)/C(C)=C/[C@@H]1C)C2=O | 91%
COc1cc2ncnc(Nc3ccc(Oc4ccccc4)cc3)c2cc1OC | 93%

Form: item "Cc1nc(-c2ccccc2)c(-c2ccncc2)o1" ; test system Casein kinase I isoform gamma-1 (Homo sapiens); residual activity: 111%

Form: item "Nc1cccc(-c2cc3c(Oc4cccc(O)c4)ncnc3[nH]2)c1" ; test system Casein kinase I isoform gamma-1 (Homo sapiens); residual activity: 86%

Form: item "COc1cccc(-c2cc(=O)c3ccccc3o2)c1N" ; test system Casein kinase I isoform gamma-1 (Homo sapiens); residual activity: 95%

Form: item "NC(=O)c1ccc2[nH]c(-c3ccc(Oc4ccc(Cl)cc4)cc3)nc2c1" ; test system Casein kinase I isoform gamma-1 (Homo sapiens); residual activity: 78%

Form: item "Cc1ccc(S(=O)(=O)/C=C/C#N)cc1" ; test system Casein kinase I isoform gamma-1 (Homo sapiens); residual activity: 80%

Form: item "COc1cc2ncc(-c3ccccc3)nc2cc1OC" ; test system Casein kinase I isoform gamma-1 (Homo sapiens); residual activity: 90%

Form: item "O=C1NC(=O)/C(=C/c2ccc3c(c2)OC(F)(F)O3)S1" ; test system Casein kinase I isoform gamma-1 (Homo sapiens); residual activity: 95%

Form: item "COc1cc2ncnc(Nc3ccc(NC(=O)c4ccccc4)cc3)c2cc1OC" ; test system Casein kinase I isoform gamma-1 (Homo sapiens); residual activity: 92%

Form: item "O=C(O)c1ccc2c3c1cccc3c(=O)n1c3ccccc3nc21" ; test system Casein kinase I isoform gamma-1 (Homo sapiens); residual activity: 99%

Form: item "O=C1NC(=O)/C(=C\c2ccc3nccnc3c2)S1" ; test system Casein kinase I isoform gamma-1 (Homo sapiens); residual activity: 92%

Form: item "CCN(CC)C(=O)c1ccc(Nc2nc(OCC3CCCCC3)c3nc[nH]c3n2)cc1" ; test system Casein kinase I isoform gamma-1 (Homo sapiens); residual activity: 42%

Form: item "CO[C@H]1C[C@@H]2CC[C@@H](C)[C@@](O)(O2)C(=O)C(=O)N2CCCC[C@H]2C(=O)O[C@H]([C@H](C)C[C@@H]2CC[C@@H](O)[C@H](OC)C2)CC(=O)[C@H](C)/C=C(\C)[C@@H](O)[C@@H](OC)C(=O)[C@H](C)C[C@H](C)/C=C/C=C/C=C/1C" ; test system Casein kinase I isoform gamma-1 (Homo sapiens); residual activity: 87%

====

- target entity: Tyrosine-protein kinase Fgr (Homo sapiens) (UniProt P09769)
- Sequence (P09769 2-529 limits assumed): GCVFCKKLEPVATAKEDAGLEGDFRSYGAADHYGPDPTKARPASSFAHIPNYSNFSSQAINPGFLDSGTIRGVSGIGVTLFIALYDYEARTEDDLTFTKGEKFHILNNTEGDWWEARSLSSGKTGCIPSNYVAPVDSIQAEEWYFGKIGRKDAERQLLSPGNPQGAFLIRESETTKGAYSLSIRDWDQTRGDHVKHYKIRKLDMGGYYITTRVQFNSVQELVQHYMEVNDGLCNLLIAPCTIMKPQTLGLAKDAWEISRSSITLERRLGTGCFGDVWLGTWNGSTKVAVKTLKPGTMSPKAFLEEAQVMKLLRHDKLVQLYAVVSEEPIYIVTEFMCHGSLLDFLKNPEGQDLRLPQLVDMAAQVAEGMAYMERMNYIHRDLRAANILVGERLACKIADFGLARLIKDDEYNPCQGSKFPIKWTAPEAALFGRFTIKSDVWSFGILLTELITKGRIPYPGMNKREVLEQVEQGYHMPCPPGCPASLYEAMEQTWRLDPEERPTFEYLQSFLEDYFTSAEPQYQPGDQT
- study conditions: at 10 µM
Sorting guide: entries reporting residual activity beneath 70% go in the Condition met pile, the rest go in the Condition not met pile.

Example cases with answers are listed next.
O=C(Nc1cccc(Nc2nccc(Nc3cccc(C(F)(F)F)c3)n2)c1)C1CC1 | Condition met
O=C(O)c1ccc2c3c1cccc3c(=O)n1c3ccccc3nc21 | Condition not met
Cc1nc(-c2ccccc2)c(-c2ccncc2)o1 | Condition not met
Cn1cnc2cc3c(Nc4cccc(Br)c4)ncnc3cc21 | Condition met
CN(C)CCCn1cc(C2=C(c3c[nH]c4ccccc34)C(=O)NC2=O)c2ccccc21 | Condition met

Lab note: confirm whether the reported residual activity for this compound is below 70%, equality not counting. compound: "O=C1NC(=O)/C(=C\c2ccc3nccnc3c2)S1"
Condition not met

Lab note: confirm whether the reported residual activity for this compound is below 70%, equality not counting. compound: "Cc1ccc(NC2=CC(=O)c3sc(C)nc3C2=O)cc1"
Condition not met

Lab note: confirm whether the reported residual activity for this compound is below 70%, equality not counting. compound: "Oc1ccc(-c2nc(-c3ccc(F)cc3)c(-c3ccncc3)[nH]2)cc1"
Condition met

Lab note: confirm whether the reported residual activity for this compound is below 70%, equality not counting. compound: "Cc1cc2ncc(-c3ccccc3)nc2cc1C"
Condition not met

Lab note: confirm whether the reported residual activity for this compound is below 70%, equality not counting. compound: "N#Cc1cnc2cnc(NCc3cccnc3)cc2c1Nc1ccc(F)c(Cl)c1"
Condition met

Lab note: confirm whether the reported residual activity for this compound is below 70%, equality not counting. compound: O=C1Nc2ccccc2/C1=C1/Nc2ccccc2/C1=N\OCCC(O)CO (centres undefined)
Condition met
